System: SK-MEL-2 melanoma
Assay Text: NCI-60 one-dose screen, 48 h (100 = growth as untreated, 0 = no growth, -100 = all killed)
Run Parameters: 10 µM
Compounds without any hit were thinned out: in the full panel of roughly 83,000, 20% have a hit.
Assignment: determine reported growth for the given compounds.
Please give a number only; it is taken to be in %.

Short answer please: growth, SK-MEL-2 melanoma, entry COc1cc(/C=C2\C(=O)Nc3cc(C)c(O)cc32)cc(OC)c1OC
79.3

Look up growth with SK-MEL-2 melanoma for this compound: NC(=O)c1ccc(Br)o1
100

Please tell me: growth of COC(=O)c1cnc2c(c1)Oc1ccccc1-c1ccnn1-2 , system SK-MEL-2 melanoma?
96.3

Please tell me: growth of O=C(Nc1cccc(Cl)c1)Nc1cc2ncncc2cc1OCc1cccc(F)c1 , system SK-MEL-2 melanoma?
-24.3

Test system SK-MEL-2 melanoma; read-out growth; what value for CC(C)c1[nH]nc2c(NCc3ccc(-c4ccccn4)cc3)nc(SCCN)nc12 ?
-82.1

Item NC(N)=NS(=O)(=O)c1ccc(Nc2ccc3nnc(-c4ccncc4)n3n2)cc1 with SK-MEL-2 melanoma - growth?
131

Under SK-MEL-2 melanoma: growth value of Cc1c(C(=O)N[C@H](CO)Cc2ccccc2)[nH]c2ccc(Cl)cc2c1=O ?
95.7

Query for SK-MEL-2 melanoma: what growth does the record show for Cc1cc(C)c2c(Nc3ncnc4c3sc3nc(C)cc(C)c34)n[nH]c2n1 ?
114
